target: human recombinant COX2 (hCOX2) (UniProt P35354); test: LCMS-based COX2 enzymatic inhibition assay (PGE2 quantification); type: biochemical; design: COX2 2 minutes pge2/pge2d4 area ratio Avg; other: 2 minutes; readout pge2/pge2d4 area ratio; average; COX2 2 minutes pge2/pge2d4 area ratio Avg; LLE; average LLE; COX2 2 minutes pge2 area (counts) Avg; readout pge2 area (counts); other: 2 min; "ovine COX2 (oCOX2), human recombinant COX2 (hCOX2)"; settings: read-out: COX2 2 minutes pge2/pge2d4 area ratio Avg. IC50 (microM); 2 minutes; readout pge2/pge2d4 area ratio; average
Value kind: pIC50
Please keep in mind that pIC50 is minus log10 of the molar concentration; only the number is needed.

Enquiry: Any idea what pIC50 came out for CS(=O)(=O)c1ccc(-c2cncc(N3Cc4ccncc4C3)n2)cc1 on human recombinant COX2 (hCOX2) (UniProt P35354)?
Return: 5.28

Enquiry: For human recombinant COX2 (hCOX2) (UniProt P35354), provide pIC50 of Cc1cccc(COc2cncc(-c3ccc(S(C)(=O)=O)cc3)n2)c1 please.
Return: 5.28

Enquiry: Form entry - test system: human recombinant COX2 (hCOX2) (UniProt P35354); read-out: pIC50; molecule: CS(=O)(=O)c1ccc(-c2cccc(NC(=O)c3cccs3)n2)cc1
Return: 5.28

Enquiry: What value of pIC50 on human recombinant COX2 (hCOX2) (UniProt P35354) does CN(C)c1cncc(-c2ccc(S(C)(=O)=O)cc2)n1 have?
Return: 5.28

Enquiry: Provide value of pIC50 for this record tested with human recombinant COX2 (hCOX2) (UniProt P35354): CC(C)COc1cncc(-c2ccc(S(C)(=O)=O)cc2)n1
Return: 5.28

Enquiry: Lab request: please report pIC50 under test system human recombinant COX2 (hCOX2) (UniProt P35354) for CS(=O)(=O)c1ccc(-c2cc3c(cn2)cnn3Cc2cccs2)cc1
Return: 5.28

Enquiry: Give recorded pIC50 with human recombinant COX2 (hCOX2) (UniProt P35354) for the following molecule: C[C@@H](Nc1cccc(-c2ccc(S(C)(=O)=O)cc2)n1)c1ccco1 (single isomer, unassigned)
Return: 5.28

Enquiry: Lab note: need pIC50 with human recombinant COX2 (hCOX2) (UniProt P35354) for entry CS(=O)(=O)c1ccc(-c2ccnc(NCc3ccco3)c2)cc1 , please look it up.
Return: 5.28

Enquiry: Give pIC50 (human recombinant COX2 (hCOX2) (UniProt P35354)) of the following molecule: Cc1coc(C(=O)Nc2cccc(-c3ccc(S(C)(=O)=O)cc3)n2)c1
Return: 5.28

====

target: human recombinant COX2 (hCOX2); assay: LCMS-based COX2 enzymatic inhibition assay (PGE2 quantification); assay type: biochemical; set-up: COX2 2 minutes pge2/pge2d4 area ratio Avg; other: 2 minutes; readout pge2/pge2d4 area ratio; average; COX2 2 minutes pge2/pge2d4 area ratio Avg; LLE; average LLE; COX2 2 minutes pge2 area (counts) Avg; readout pge2 area (counts); other: 2 min; "ovine COX2 (oCOX2), human recombinant COX2 (hCOX2)"; settings: 2 minutes; readout pge2/pge2d4 area ratio; average LLE
In this scheme, each record receives a class according to its COX2 2 minutes pge2/pge2d4 area ratio Avg. LLE; the ranges are LOW: < 4; MEDIUM: ≥ 4 and < 5; HIGH: ≥ 5

Enquiry: Into which category would you place COc1ccc(NCc2ccoc2)nc1-c1ccc(S(C)(=O)=O)cc1 ?
Return: MEDIUM

Enquiry: Hi there! Could you help me figure out the category for COCc1ccc(NCc2cccs2)nc1-c1ccc(S(C)(=O)=O)cc1 please?
Return: LOW

Enquiry: Into which category would you place CS(=O)(=O)c1ccc(-c2cncc(OCc3nccs3)c2)cc1 ?
Return: LOW

Enquiry: Class for CS(=O)(=O)c1ccc(-c2cncc(NCc3cncs3)n2)cc1 ?
Return: MEDIUM

Enquiry: Kindly identify the class of CS(=O)(=O)c1ccc(-n2ccc3ccc(NCc4ccoc4)nc32)cc1 .
Return: LOW

Enquiry: Class (by measured COX2 2 minutes pge2/pge2d4 area ratio Avg. LLE) for CS(=O)(=O)c1ccc(-c2cccc(OCc3ccc(Cl)s3)n2)cc1
Return: LOW

Enquiry: Exam item: assign CS(=O)(=O)c1ccc(-c2cncc(NCc3cccs3)n2)cn1 to the correct category.
Return: HIGH

Enquiry: Hello team, could you let me know which band the following compound falls into: CS(=O)(=O)c1ccc(-c2cncc(N3CCCCC3)n2)cc1
Return: LOW

Enquiry: Sort into band: Cc1csc(COc2cncc(-c3ccc(S(C)(=O)=O)cc3)n2)c1
Return: HIGH

Enquiry: Which class does CS(=O)(=O)c1ccc(-c2cc(OCc3cccs3)cnn2)cc1 fall in?
Return: LOW

Enquiry: Tag the class for CS(=O)(=O)c1ccc(-c2cccc([S@@+]([O-])Cc3cccs3)n2)cc1
Return: LOW

Enquiry: Which category fits this record: CS(=O)(=O)c1ccc(-c2cncc(SCc3ccoc3)n2)cc1
Return: HIGH

Enquiry: Hi there! Could you help me figure out the category for Cc1ncc(OCc2cccs2)nc1-c1ccc(S(C)(=O)=O)cc1 please?
Return: MEDIUM

Enquiry: Would you mind sorting Cc1ncc(NCc2cccs2)nc1-c1ccc(S(C)(=O)=O)cc1 into the appropriate category?
Return: MEDIUM

Enquiry: Which COX2 2 minutes pge2/pge2d4 area ratio Avg. LLE band matches CS(=O)(=O)c1ccc(-c2cccc(NCc3ccc(F)o3)n2)cc1 ?
Return: MEDIUM

Provenance of the data: patent US20220348590A1
